From: patent US7776862B2

I'd appreciate it if you could supply IC50 values for the items below.
# Target desc: human CXCR3 (N-delta 4) (Homo sapiens)
# Construct: CD8 leader; Flag tag; expressed in transfected cells; membranes used
# Sequence (P49682 5-368 limits assumed): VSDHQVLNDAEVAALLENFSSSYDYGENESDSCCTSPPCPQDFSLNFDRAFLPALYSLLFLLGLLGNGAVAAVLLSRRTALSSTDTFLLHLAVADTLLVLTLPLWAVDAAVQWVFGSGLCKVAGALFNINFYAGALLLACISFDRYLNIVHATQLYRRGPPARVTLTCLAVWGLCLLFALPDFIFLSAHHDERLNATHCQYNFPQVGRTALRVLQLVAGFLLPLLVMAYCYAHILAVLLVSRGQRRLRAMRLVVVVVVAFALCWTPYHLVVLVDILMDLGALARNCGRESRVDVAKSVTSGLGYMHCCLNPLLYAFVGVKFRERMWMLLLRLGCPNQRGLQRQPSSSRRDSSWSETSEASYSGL
# Experiment summary: Human CXCR3 (N-delta 4) scintillation proximity assay (SPA), [125I] IP-10 binding
# Details: IC50 rating; Ba/F3-hCXCR3 (N-delta 4) membranes, 25 pM [125I] IP-10

Qu. Hello, please tell me recorded IC50 for this one: O=C(NCc1cccc(F)c1)c1cnc(N2CCN(C3CCN(Cc4ccc(F)cc4)CC3)CC2)c(Cl)c1 [compound 29]
Ans. > 100 nM

Qu. For the compound CCNC(=O)c1cnc(N2CCN(C3CCN([C@H](CC)c4ccc(Cl)cc4)CC3)[C@@H](C)C2)c(Cl)c1 [compound 330] , give its reported IC50.
Ans. > 100 nM

Qu. Supply measured IC50 of O=C(NCc1ccc(Br)cc1)c1cnc(N2CCN(C3CCN(Cc4ccc(Cl)cc4)CC3)CC2)c(Cl)c1 [compound 136] in your reply.
Ans. 25 to 100 nM

Qu. Tell me its IC50 given O=C(NCc1cccc(Cl)c1)c1cnc(N2CCN(C3CCN(Cc4ccc(Cl)cc4)CC3)CC2)c(Cl)c1 [compound 84] as the entry.
Ans. > 100 nM

Qu. Answer with the recorded IC50 for the compound listed here: CC[C@H]1CN(c2ncc(CNc3c(NC4CC4)c(=O)c3=O)cc2Cl)CCN1C1CCN(Cc2ccc(Br)cc2F)CC1 [compound 412]
Ans. 25 to 100 nM

Qu. Tell me measured IC50 for CC[C@H]1CN(c2ncc(CNC(N)=O)cc2Cl)CCN1C1CCN(Cc2ccc(Cl)cc2F)CC1 [compound 379] please.
Ans. < 25 nM

Qu. Supply IC50 value. Item: CC[C@H]1CN(c2ncc(CNC(=O)N(C)C)cc2Cl)CCN1C1CCN(Cc2ccc(Cl)cc2F)CC1 [compound 410]
Ans. 25 to 100 nM

Qu. Output IC50 of O=C(NCCOc1ccccc1)c1cnc(N2CCN(C3CCN(Cc4ccc(F)c(F)c4)CC3)CC2)c(Cl)c1 [compound 35]
Ans. > 100 nM

Qu. Quick one: give measured IC50 for O=C(NCc1cc(Cl)cc(Cl)c1)c1cnc(N2CCN(C3CCN(Cc4ccc(Cl)c(F)c4)CC3)CC2)c(Cl)c1 [compound 80]
Ans. > 100 nM

Qu. Given CC[C@H]1CN(c2ncc(CNS(C)(=O)=O)cc2Cl)CCN1C1CCN(Cc2ccc(Cl)cc2F)CC1 [compound 380] , respond with its IC50.
Ans. < 25 nM

Qu. Identify the reported IC50 for the following entry. CNC(=O)c1cnc(N2CCN(C3CCN(Cc4ccc(C(F)(F)F)cc4)CC3)[C@@H](C)C2)c(Cl)c1 [compound 301]
Ans. 25 to 100 nM

Qu. Please indicate IC50 recorded for CCNCc1cnc(N2CCN(C3CCN(Cc4ccc(Cl)cc4F)CC3)[C@@H](CC)C2)c(Cl)c1 [compound 406]
Ans. < 25 nM

Qu. Provide one value: measured IC50 of N#Cc1ccc(C(=O)N2CCC(N3CCN(c4ncc(C(=O)NCc5ccc(Cl)c(Cl)c5)cc4Cl)CC3)CC2)cc1 [compound 64]
Ans. > 100 nM

Qu. Complete the entry with IC50 for O=C(NC1CCc2ccccc21)c1cnc(N2CCN(C3CCN(Cc4ccc(Cl)cc4)CC3)CC2)c(Br)c1 (stereo not shown) [compound 3]
Ans. > 100 nM

Qu. Tell me its IC50 given CCC(=O)c1cnc(N2CCN(C3CCN(Cc4ccc(Cl)cc4F)CC3)[C@@H](CC)C2)c(Cl)c1 [compound 411] as the entry.
Ans. 25 to 100 nM

Qu. Identify measured IC50 associated with CC(NC(=O)c1cnc(N2CCN(C3CCN(Cc4ccc(Cl)cc4)CC3)CC2)c(Cl)c1)c1ccc(Cl)cc1 (stereo not shown) [compound 171]
Ans. 25 to 100 nM

Qu. Hello, please tell me recorded IC50 for this one: CC(c1ccc(Cl)cc1)N1CCC(N2CCN(c3ncc(C(=O)NCc4ccc(F)c(F)c4)cc3Cl)CC2)CC1 (stereo not shown) [compound 46]
Ans. > 100 nM

Qu. Tell me its IC50 given N#Cc1ccc(CN2CCC(N3CCN(c4ncc(C(=O)NCc5ccc(F)cc5)cc4Cl)CC3)CC2)cc1 [compound 321] as the entry.
Ans. 25 to 100 nM

Qu. Identify IC50 associated with the compound CC[C@H]1CN(c2ncc(CNC(=S)NC3CC3)cc2Cl)CCN1C1CCN(Cc2ccc(Cl)cc2F)CC1 [compound 374]
Ans. < 25 nM

Qu. Provide IC50 value for the following compound: O=C(NCc1ccc(Cl)c(Cl)c1)c1ccc(N2CCN(C3CCN(Cc4ccc(Cl)cc4)CC3)CC2)c(Cl)c1 [compound 17]
Ans. > 100 nM

Qu. Return the recorded IC50 value; entry: O=C(NCc1ccc(C(F)(F)F)cc1)c1cnc(N2CCN(C3CCN(Cc4ccc(F)c(F)c4)CC3)CC2)c(Cl)c1 [compound 92]
Ans. > 100 nM

Qu. Give a short answer stating reported IC50 for CC[C@H]1CN(c2ncc(CNS(=O)(=O)CC)cc2Cl)CCN1C1CCN(Cc2ccc(Cl)cc2F)CC1 [compound 386] .
Ans. < 25 nM

Qu. For the compound O=C(NCCc1c[nH]c2ccccc12)c1cnc(N2CCN(C3CCN(Cc4ccc(Cl)cc4)CC3)CC2)c(Cl)c1 [compound 364] , give its measured IC50 value.
Ans. > 100 nM

Qu. Identify measured IC50 associated with CC[C@H]1CN(c2ncc(CN/C(=N\C#N)NC)cc2Cl)CCN1C1CCN(Cc2ccc(Cl)cc2F)CC1 [compound 403]
Ans. < 25 nM

Qu. Give IC50 for O=C(NCc1ccc(Cl)c(Cl)c1)c1cnc(N2CCN(C3CCN(Cc4ccc(Cl)cc4)CC3)CC2)c(Br)c1 [compound 279]
Ans. 25 to 100 nM
